src = patent US20250282828A1

tested.target: Dengue 2 virus capsid protein (Dengue virus type 2)
Construct: with the Dengue 2 virus capsid protein
Sequence (P29990 1-100 limits assumed): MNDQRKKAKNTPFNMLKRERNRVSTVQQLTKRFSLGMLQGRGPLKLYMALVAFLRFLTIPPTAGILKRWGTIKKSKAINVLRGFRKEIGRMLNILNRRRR
assay.text: BIACORE surface plasmon resonance interaction with immobilized peptide
Assay type: binding
pKd: −log10 of the molar value. No end group written: not given here.
Readings of pKd for the listed substances
metric: pKd

{"substance": "NDRLASLYDKV [SEQ ID NO: 14]", "test.result": 5.23}
{"substance": "NLNDRLASLYDKV [SEQ ID NO: 15]", "test.result": 5.90}
{"substance": "Ac-RVTQMNLNDRLASLYDKV [SEQ ID NO: 2]", "test.result": 6.12}
{"substance": "RVTQMNLNDRLASLYDKV [SEQ ID NO: 1]", "test.result": 8.78}
